// data source = PubChem BioAssay (NCI)

System: CAKI-1 renal
Assay: NCI-60 one-dose screen, 48 h
Conditions: 10 µM
The panel holds about 83,000 compounds, 20% with a hit somewhere; the sample as a whole holds those more often. The source made the active and inactive calls. How the source made its calls: active means growth percent below 10; inactive means the rest.
Entry note: the call must match one of Yes (active), No (inactive)

Query string: I would be grateful if you could indicate the recorded call for CC1=C2C(=C[C@@](C)(COC(=O)c3ccc(S(=O)(=O)F)cc3)[C@@H]2OC(=O)c2ccc(S(=O)(=O)F)cc2)C(=O)[C@](C)(O)C12CC2 .
Result string: Yes

Query string: I would be grateful if you could indicate the recorded call for COc1cc(OC)c(S(=O)(=O)N(CCCl)CCCl)cc1C(=O)/C=C/c1ccc(Cl)cc1 .
Result string: No

Query string: I would be grateful if you could indicate the recorded call for COC(=O)[C@H]1[C@@H](O)[C@@]2(O)c3c(OC)cc(OC)cc3O[C@@]2(c2ccc(OC)cc2)[C@@H]1c1ccccc1 .
Result string: Yes

Query string: I would be grateful if you could indicate the recorded call for N#Cc1nc(-c2ccccc2)oc1N1CCC(S(=O)(=O)F)CC1 .
Result string: No

Query string: I would be grateful if you could indicate the recorded call for CC1=C(CCC=NNC(N)=O)C2=C(C)C3(CC3)[C@@](C)(O)C(=O)C2=C1 .
Result string: Yes

Query string: I would be grateful if you could indicate the recorded call for CC1=C2C(=C[C@@](C)(COS(C)(=O)=O)[C@@H]2O)C(=O)[C@](C)(O)C12CC2 .
Result string: Yes

Query string: I would be grateful if you could indicate the recorded call for O=C(CCCc1ccc(N(CCCl)CCCl)cc1)OCc1ccccc1 .
Result string: No

Query string: I would be grateful if you could indicate the recorded call for CC1=C(CN(O)C(N)=O)C2=C(C)C3(CC3)[C@](C)(O)C(=O)C2=C1 .
Result string: Yes

Query string: I would be grateful if you could indicate the recorded call for CC1=C2C(=O)[C@](C)(CO)C=C2C(=O)[C@](C)(O)C12CC2 .
Result string: No

Query string: I would be grateful if you could indicate the recorded call for CC1=C(CN(O)C(N)=O)C2=C(C)C3(CC3)[C@@](C)(O)C(=O)C2=C1 .
Result string: Yes

Query string: I would be grateful if you could indicate the recorded call for CC1=C2C(=C[C@@](C)(C=O)[C@@H]2O)C(=O)[C@](C)(O)C12CC2 .
Result string: No

Query string: I would be grateful if you could indicate the recorded call for CN1C(=O)[C@]23SSC1(C)C(=O)N2[C@H]1Nc2ccccc2C1([C@@]12c4ccccc4N[C@@H]1N1C(=O)C4(C)SS[C@]1(C(=O)N4C)[C@H]2O)[C@@H]3O (stereo not given in full) .
Result string: Yes

Query string: I would be grateful if you could indicate the recorded call for C[C@@H]1C[C@H]2C(=O)O[C@@H](C)C(NC(=O)[C@H](Cc3cc(F)cc(F)c3)NC(=O)Nc3ccc(OS(=O)(=O)F)cc3)C(=O)N3CCC[C@H]3C(=O)N3CCO[C@H](C)[C@H]3C(=O)N[C@@H](CO)C(=O)N2C1 (stereo not given in full) .
Result string: No

Query string: I would be grateful if you could indicate the recorded call for NC1CCc2cc(O)c(O)cc2C1 (stereo not given) .
Result string: No

Query string: I would be grateful if you could indicate the recorded call for N#Cc1c(-n2c(Br)c(Br)c3cc(Br)ccc32)[nH]c2c(Br)cc(Br)cc12 .
Result string: Yes

---

Test system: HL-60(TB) leukemia
Experiment: NCI-60 one-dose screen, 48 h (100 = growth as untreated, 0 = no growth, -100 = all killed)
Details: 10 µM unless noted
About 83,000 compounds went through this panel and 20% of them were active in at least one assay; those are over-represented in the sample as a whole. The source made the active and inactive calls. How the source made its calls: active means growth percent below 10; inactive means the rest.
Measurement Type: growth

Query string: Request body: readout growth, system HL-60(TB) leukemia, query NS(=O)(=O)c1ccc(Nc2nc(N/N=C/c3ccc(C(F)(F)F)cc3)nc(Nc3ccccc3)n2)cc1 . Return the value.
Result string: 48.9% (inactive)

Query string: Request body: readout growth, system HL-60(TB) leukemia, query CCOC(=O)c1c(Nc2ccccc2)nn2c(-c3ccco3)c(C#N)cnc12 . Return the value.
Result string: 110% (inactive)

Query string: Request body: readout growth, system HL-60(TB) leukemia, query COc1ccc(-c2nn3c(-c4ccccc4F)nnc3s2)cc1 . Return the value.
Result string: 47.7% (inactive)

Query string: Request body: readout growth, system HL-60(TB) leukemia, query CN(C)c1ccc(/C=N/Nc2nc(N/N=C/c3ccc(N(C)C)cc3)nc(N3CCOCC3)n2)cc1 . Return the value.
Result string: 96.7% (inactive)

Query string: Request body: readout growth, system HL-60(TB) leukemia, query CCCCSc1nnc(-c2ccc(-c3ccc(Cl)cc3)nc2C)o1 . Return the value.
Result string: 91.9% (inactive)

Query string: Request body: readout growth, system HL-60(TB) leukemia, query CC(=O)NC(C)(C)C(=O)N[C@@H](C)C(=O)NC(C)(C)C(=O)N[C@@H](C)C(=O)NC(C)(C)C(=O)N[C@@H](C)C(=O)N[C@@H](CCC(N)=O)C(=O)NC(C)(C)C(=O)N[C@H](C(=O)NC(C)(C)C(=O)NCC(=O)N[C@@H](CC(C)C)C(=O)NC(C)(C)C(=O)N1CCC[C@H]1C(=O)N[C@H](C(=O)NC(C)(C)C(=O)NC(C)(C)C(=O)N[C@@H](CCC(N)=O)C(=O)N[C@@H](CCC(N)=O)C(=O)N[C@H](CO)CC1CCCCC1)C(C)C)C(C)C . Return the value.
Result string: 10.3% [5 µM] (inactive)

---

Test system: SN12C renal
Experiment: NCI-60 one-dose screen, 48 h
Conditions: 10 µM
The panel holds about 83,000 compounds, 20% with a hit somewhere; the sample as a whole holds those more often. Activity calls are given as the source filed them. How the source made its calls: active means growth percent below 10; inactive means the rest.
Entry note: the call must match one of active, inactive

Query string: I would be grateful if you could indicate the recorded call for COc1cc(OC)c(S(=O)(=O)N(CCCl)CCCl)cc1C(=O)/C=C/c1ccc(Cl)cc1 .
Result string: inactive

Query string: I would be grateful if you could indicate the recorded call for C/C=C\C(=O)O[C@@H]1CC2O[C@@H]3C=C(C)C(=O)C[C@]3(C)[C@]1(C)[C@]21CO1 .
Result string: active

Query string: I would be grateful if you could indicate the recorded call for CC1=C2C(=O)[C@](C)(CO)C=C2C(=O)[C@](C)(O)C12CC2 .
Result string: inactive

Query string: I would be grateful if you could indicate the recorded call for CC1=C2C(=C[C@@](C)(C=O)[C@@H]2O)C(=O)[C@](C)(O)C12CC2 .
Result string: inactive

Query string: I would be grateful if you could indicate the recorded call for COc1cc2c(cc1OC)[C@@H]1N(CC2)C(=O)c2ccccc2[C@@]1(C)C(=O)O .
Result string: inactive

Query string: I would be grateful if you could indicate the recorded call for CC(C)(O)/C=C/C(=O)[C@](C)(O)[C@H]1[C@H](O)C[C@@]2(C)[C@H]3CC=C4[C@@H](C[C@H](O)C(=O)C4(C)C)[C@]3(C)C(=O)C[C@]12C .
Result string: active

Query string: I would be grateful if you could indicate the recorded call for CC1=C2C(=C[C@@](C)(COC(=O)c3ccc(S(=O)(=O)F)cc3)[C@@H]2OC(=O)c2ccc(S(=O)(=O)F)cc2)C(=O)[C@](C)(O)C12CC2 .
Result string: inactive

Query string: I would be grateful if you could indicate the recorded call for CCC(C)[C@H]1C(=O)O[C@H](C(C)C)C(=O)N(C)[C@@H](C(C)C)C(=O)O[C@H](C(C)C)C(=O)N(C)[C@@H](C(C)C)C(=O)O[C@H](C(C)C)C(=O)N1C (some centres not stated) .
Result string: active

Query string: I would be grateful if you could indicate the recorded call for CC1=C2C(=C[C@@](C)(COS(C)(=O)=O)[C@@H]2O)C(=O)[C@](C)(O)C12CC2 .
Result string: inactive

Query string: I would be grateful if you could indicate the recorded call for COc1cc2c(O[C@@H]3OC[C@H](O)[C@H](O)[C@H]3O)c3c(c(-c4ccc5c(c4)OCO5)c2cc1OC)C(=O)OC3 .
Result string: inactive

Query string: I would be grateful if you could indicate the recorded call for COC1[C@@H]2C[C@H]3C(C)(C)O[C@@](C/C=C(/C)C(=O)O)(C2=O)[C@]32Oc3c(CC=C(C)C)c4c(c(O)c3C(=O)[C@H]12)C=CC(C)(C)O4 (some centres not stated) .
Result string: active

Query string: I would be grateful if you could indicate the recorded call for CN(CCF)/N=N/c1nc[nH]c1C(N)=O .
Result string: inactive

Query string: I would be grateful if you could indicate the recorded call for O=C(CCCc1ccc(N(CCCl)CCCl)cc1)OCc1ccccc1 .
Result string: inactive

Query string: I would be grateful if you could indicate the recorded call for CC(C)=CCc1c2c(c(O)c3c1O[C@]14C(=C[C@@H]5C[C@H]1C(C)(C)O[C@@]4(C/C=C(/C)C(=O)O)C5=O)C3=O)C=CC(C)(C)O2 .
Result string: active

Query string: I would be grateful if you could indicate the recorded call for CC1=C[C@H]2O[C@@H]3C[C@H]4OC(=O)/C=C\C=C\[C@H]([C@@H](C)O)OCC/C(C)=C/C(=O)OC[C@@]2(CC1)[C@]4(C)[C@]31CO1 .
Result string: active

Query string: I would be grateful if you could indicate the recorded call for CN1C(=O)[C@]23SSC1(C)C(=O)N2[C@H]1Nc2ccccc2C1([C@@]12c4ccccc4N[C@@H]1N1C(=O)C4(C)SS[C@]1(C(=O)N4C)[C@H]2O)[C@@H]3O (some centres not stated) .
Result string: active

Query string: I would be grateful if you could indicate the recorded call for C[C@@H]1C[C@H]2C(=O)O[C@@H](C)C(NC(=O)[C@H](Cc3cc(F)cc(F)c3)NC(=O)Nc3ccc(OS(=O)(=O)F)cc3)C(=O)N3CCC[C@H]3C(=O)N3CCO[C@H](C)[C@H]3C(=O)N[C@@H](CO)C(=O)N2C1 (some centres not stated) .
Result string: inactive
